Target: Carbonic anhydrase 9 (Homo sapiens, UniProt Q16790)
Parameter Measured: Ki
Answers without a unit are incomplete; give the number and then its unit.

• COC(=O)CCNS(=O)(=O)NC(C)c1ccccc1 (centres undefined) = 0.117 µM
• COC(=O)CCNS(=O)(=O)NCC(C)C = 0.0318 µM

For the next question, use this compound.
Record COC(=O)[C@H](Cc1ccccc1)NS(=O)(=O)NCc1ccc(F)cc1 / Carbonic anhydrase 9 (Homo sapiens, UniProt Q16790), Ki recorded as 0.0281 µM

* * *

Target: Carbonic anhydrase 14 (Homo sapiens)
Sequence (Q9ULX7 whole entry): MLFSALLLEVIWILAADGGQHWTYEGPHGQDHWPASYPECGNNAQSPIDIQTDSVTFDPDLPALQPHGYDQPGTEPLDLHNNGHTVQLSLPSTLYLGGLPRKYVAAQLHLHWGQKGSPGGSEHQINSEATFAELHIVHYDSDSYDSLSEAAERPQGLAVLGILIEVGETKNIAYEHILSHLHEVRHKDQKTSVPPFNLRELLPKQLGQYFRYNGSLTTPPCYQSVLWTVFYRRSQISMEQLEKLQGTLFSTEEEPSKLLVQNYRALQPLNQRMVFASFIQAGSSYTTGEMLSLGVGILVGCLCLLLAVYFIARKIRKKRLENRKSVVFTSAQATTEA
Entries annotated with measured Ki
// units = nM; emit number, no label

Before answering, review these 5 worked examples.
* CCCCCCNS(=O)(=O)NCCC(=O)OC | 6.1
* COC(=O)CCNS(=O)(=O)NC12CC3CC(CC(C3)C1)C2 | 8
* COC(=O)CCNS(=O)(=O)NCCc1ccccc1 | 7.3
* O=S(=O)([O-])NC1CCCCC1.[Na+] [SODIUM CYCLAMATE] | 6.6
* COC(=O)[C@@H](NS(=O)(=O)NCC(C)C)C(C)C | 7.8

Sure, the documented Ki for COC(=O)[C@H](Cc1ccccc1)NS(=O)(=O)NCc1ccc(F)cc1 is 6.5

The compound listed as COC(=O)[C@H](Cc1ccccc1)NS(=O)(=O)NCC(C)C shows Ki equal to 7.7

Reported Ki ( COC(=O)[C@@H](NS(=O)(=O)NCc1ccc(F)cc1)C(C)C ) = 7.4

// Ki value for COC(=O)CCNS(=O)(=O)NC(C)c1ccccc1 (centres undefined) : 7.5
